test system: JEG-3; experiment: Primary qHTS to identify gynecologic anti-cancer compounds using libraries of approved drugs and bioactive compounds (AID 1345084); conditions: Gynecologic cancer cell panel viability, ATPlite luminescence, 48 h; series mostly up to 57.5 µM; further: nearly all actives have a fitted effect of over 55% in size
Inconclusive results are not listed. Calls of active or inactive are those of the source. The call rests on the fitted dose curve; in most records, active means well fitted cell-killing curve with a large enough effect; inconclusive means small, poorly fitted or top-dose-only effect, or effect the other way; inactive means flat fitted curve, though single readings scatter.
PROPERTY_LABEL: outcome

CCCCC/C=C\C/C=C\CCCCCCCC(=O)NC(C)c1ccccc1 (configuration not stated) : inactive
COc1cc2c(cc1OC)C(=O)CC2 : inactive
O=C(O)Cn1c(=O)n(Cc2ccc(Br)cc2F)c(=O)c2ccc(Cl)cc21 : inactive
CCCCC(CC)CNC(=O)CC(C)OC(=O)CCC(=O)O (configuration not stated) : inactive
C/C(=C1\CCOC(=O)S1)N(C=O)Cc1cnc(C)nc1N : inactive

Quick batch: outcome for everything below.
1. NC(=O)NS(=O)(=O)c1ccc(Cl)cc1
2. CCCCCC1Nc2cc(C(F)(F)F)c(S(N)(=O)=O)cc2S(=O)(=O)N1 (configuration not stated)
3. CCN(CC)CC(=O)Nc1c(C)cccc1C(=O)OC
4. Oc1cccc2[nH]ccc12
5. CCCC(=O)O[C@]1(C(=O)CC)CC[C@H]2[C@@H]3CCC4=CC(=O)CC[C@]4(C)[C@H]3[C@@H](O)C[C@@]21C
6. OC(CCCN1CCCCC1)(c1ccccc1)c1ccccc1
7. CCC[C@H](N[C@@H](C)C(=O)N1[C@H](C(=O)O)C[C@@H]2CCCC[C@@H]21)C(=O)OCC
8. O=S(=O)(O)c1ccc2nc(-c3ccccc3)[nH]c2c1

Reply:
1. inactive
2. inactive
3. inactive
4. inactive
5. inactive
6. inactive
7. inactive
8. inactive

Quick batch: outcome for everything below.
1. Nc1nc(=O)n([C@@H]2O[C@H](CO)[C@@H](O)[C@@H]2F)cc1I
2. CCOc1ncc(F)c(=O)[nH]1
3. CCCCOC(=O)CCCCCCCCC(=O)OCCCC
4. COc1ccccc1OCC1CNC(=O)O1 (configuration not stated)

Reply:
["inactive", "inactive", "inactive", "inactive"]

Taken from PubChem BioAssay (NCATS).
